All figures here come from PubChem BioAssay (Tox21).

Assay: Nuclear factor erythroid 2-related factor 2/antioxidant responsive element (Nrf2/ARE) small molecule agonists: qHTS cell viability counter screen in human keratinocytes (AID 1919968); note: nearly all actives have a fitted effect of over 55% in size
Conditions: KeratinoSens HaCaT ARE cells viability, CellTiter-Fluor, 24 h; series mostly up to 92.4 µM
Excerpt: U.S. Tox21 Program National Center for Advancing Translational Sciences [NCATS] Division of Preclinical Innovation [DPI] U.S. Environmental Protection Agency [EPA] National Institutes of Environmental Health Sciences [NIEHS] National Toxicology Program [NTP] U.S. Food and Drug Administration [FDA] […] The activation of the report gene under culture conditions can be detected by ONE-Glo Luciferase Assay System (Promega, Madison, WI). […]
Inconclusive results are not listed. Activity calls are given as the source filed them. Calls come from the whole dose curve; as a rule, active = well fitted cell-killing curve with a large enough effect in the repeat runs; inconclusive = weak or mixed curves, or effect the other way; inactive = flat fitted curve, though single readings scatter.
Give one outcome, nothing more. List: class 1 = active, class 0 = inactive

Worked examples, 6 compounds total:
CCN(CC)CC1CCCCN1CC(=O)N1c2ccccc2C(=O)Nc2cccnc21 (stereo not drawn)
class 0
Cc1cc(C(=C2C=CC(=Nc3ccc(S(=O)(=O)O)cc3S(=O)(=O)O)C=C2)c2ccc(Nc3ccc(S(=O)(=O)O)cc3)cc2)ccc1N
class 0
O=S(c1cc(Cl)cc(Cl)c1O)c1cc(Cl)cc(Cl)c1O
class 1
CCCCCCCCCCCCOC(C)=O
class 0
O=[N+]([O-])c1ccc(Cl)cc1Cl
class 0
CC(C)OC(=O)OCOP(=O)(CO[C@H](C)Cn1cnc2c(N)ncnc21)OCOC(=O)OC(C)C
class 0

Test call for this compound, please: `O=C(O)CCc1nc2ccccc2[nH]1`
class 0

Test call for this compound, please: CCOCC(C)O (stereo not drawn)
class 0

Test call for this compound, please: `CC1(C)O[C@@H]2C[C@H]3[C@@H]4CCC5=CC(=O)CC[C@]5(C)[C@@]4(F)[C@@H](O)C[C@]3(C)[C@]2(C(=O)CCl)O1`
class 0
